Where do the numbers come from? From ChEMBL document CHEMBL1150271.

Kindly state pIC50 for each of the entries shown.
Molecular target: Thyrotropin-releasing hormone receptor 2 (Rattus norvegicus, UniProt A6IZR3)
Sequence (A6IZR3 whole entry): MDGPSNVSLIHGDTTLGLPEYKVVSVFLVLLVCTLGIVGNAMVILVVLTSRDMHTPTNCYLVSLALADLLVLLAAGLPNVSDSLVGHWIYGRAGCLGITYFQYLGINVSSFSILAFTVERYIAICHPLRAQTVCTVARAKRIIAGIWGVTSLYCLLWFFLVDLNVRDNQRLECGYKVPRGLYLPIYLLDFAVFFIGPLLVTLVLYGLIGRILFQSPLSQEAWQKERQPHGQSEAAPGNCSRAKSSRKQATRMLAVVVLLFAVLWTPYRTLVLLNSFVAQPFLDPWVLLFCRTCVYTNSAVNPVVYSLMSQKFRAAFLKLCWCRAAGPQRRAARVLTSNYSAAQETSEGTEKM
Test: Displacement of [3H]3-methylhistidyl-TRH from rat recombinant TRH2 receptor expressed in […] cells
One number for each entry, as −log10 of the molar value.

The examples below pair each entry with its known result.
[[record]]
compound = "NC(=O)[C@@H]1CCCN1C(=O)[C@H](Cc1cnc[nH]1)NC(=O)[C@@H]1CCC(=O)N1"
measured_result = 4.64

[[record]]
compound = "Cc1c(O)c(C(=O)CCc2ccccc2)c(O)c(C(CC(C)C)C2=C(O)C(C)(C)C(=O)C(C)(C)C2=O)c1O (stereo not drawn)"
measured_result = 4.72


We next turn to a different compound, shown below.
For reference, reported pIC50 for Cc1c(O)c(C(=O)CCc2ccccc2)c(O)c(C(CCc2ccccc2)C2=C(O)C(C)(C)C(=O)C(C)(C)C2=O)c1O (stereo not drawn) stands at 4.64
